Entry source: the supplement of paper PMC9337992

Test system: SUM149-PT
Assay: cell proliferation (confluence) relative to DMSO control; higher = less growth inhibition
Protocol Conditions: 5 uM; 6 d
Give measured cell proliferation for each item. Keep answers brief.

[Q] Record request: cell proliferation value, item COc1cc(-c2cn(C)c(=O)c3cnccc23)c(OC)cc1CN(C)C
[A] 74.4%

[Q] # cell proliferation lookup, item CC(C)N(CCCNC(=O)Nc1ccc(C(C)(C)C)cc1)C[C@H]1O[C@@H](n2cc(Br)c3c(N)ncnc32)[C@H](O)[C@@H]1O
[A] 76%

[Q] Give the measured cell proliferation of COc1cc2c(NC3CCN(C(C)C)CC3)nc(C3CCCCC3)nc2cc1OCCCN1CCCC1 .
[A] 91.8%

----------
Tested on: MB157
Assay: cell proliferation (confluence) relative to DMSO control; higher = less growth inhibition
Protocol Conditions: 5 uM; 6 d
Outcome Measure: cell proliferation (%)
Note: unit % is implicit; provide only the numeric part.

[Q] Query (compound): CCCOc1ccn2c(C(C)=O)cc(-c3ccccc3S(C)(=O)=O)c2c1 ; field requested: cell proliferation
[A] 76.8

[Q] Would you mind telling me what cell proliferation value was observed for CCOC(=O)CCNc1cc(N2CCc3ccccc3CC2)nc(-c2ccccn2)n1 ?
[A] 33.6

[Q] Item under review: CCCc1cc(C)[nH]c(=O)c1CNC(=O)c1cc(-c2ccc(N3CCN(C(C)C)CC3)nc2)cc2c1cnn2C(C)C . Reported cell proliferation?
[A] 46.2

[Q] Endpoint output: cell proliferation of CCOC(=O)CCNc1cc(N2CCc3ccccc3CC2)nc(-c2cccnc2)n1 . Value?
[A] 96.1

[Q] Query (compound): Clc1cc2c(NC3CCCC3)nnc(-c3ccncc3)c2cc1Cl ; field requested: cell proliferation
[A] 98.8

[Q] Any idea what cell proliferation was measured for CC[C@H](C)n1cc(C)c2c(C(=O)NCc3c(C)cc(C)[nH]c3=O)cc(-c3ccc(N4CCNCC4)nc3)cc21 ?
[A] 79.1

[Q] Form field: reported cell proliferation of COc1c(C)cc(NC(=O)c2nn(Cc3ccc(F)cc3)c3c2CN(C(=O)c2ccc[nH]2)C[C@]3(C)C(N)=O)cc1C
[A] 93.7

[Q] Using the record for Cc1nnc2c3ccccc3c(N[C@@H](C)[C@H](c3ccccc3)N(C)C)nn12 , report its cell proliferation.
[A] 98.5

[Q] Item O=C(NCC(=O)N1CCCC1)Nc1ccc2cnccc2c1 has what recorded cell proliferation?
[A] 94.3

[Q] cell proliferation for O=C(NC[C@H](O)CN1CCc2ccccc2C1)c1ccnc(NC2CCC2)c1 ?
[A] 66.5

----------
Tested on: HCC1143
Assay: cell proliferation (confluence) relative to DMSO control; higher = less growth inhibition
Protocol Conditions: 5 uM; 6 d
Outcome Measure: cell proliferation
Report field: quantity (unit follows the number).

[Q] I'd like to know its cell proliferation. The compound in question is CCn1cc(-c2cccc(C(F)(F)F)c2)c2sc(C(=N)NC3CCS(=O)(=O)CC3)cc2c1=O
[A] 98.7%

[Q] Which value of cell proliferation has been reported for O=C(NCC(=O)N1CCCC1)Nc1ccc2cnccc2c1 in the records?
[A] 97.5%

[Q] What value of measured cell proliferation is listed for CCOC(=O)CCNc1cc(N2CCc3ccccc3CC2)nc(-c2cccnc2)n1 ?
[A] 99.3%

----------
System: MDAMB436
Assay: cell proliferation (confluence) relative to DMSO control; higher = less growth inhibition
Protocol Conditions: 5 uM; 6 d
Outcome Measure: cell proliferation (%)
All answers are understood in %, so give the number only.

[Q] Look up cell proliferation: Cc1nnc2c3ccccc3c(N[C@@H](C)[C@H](c3ccccc3)N(C)C)nn12
[A] 80.8

[Q] Which cell proliferation is listed for COc1ccc(CCc2nc3cc(-c4c(C)noc4C)ccc3n2C[C@H](C)N2CCOCC2)cc1Cl ?
[A] 57.3

[Q] Quick check: cell proliferation of COc1cc2c(cc1OCCCN1CCCC1)N=C(N)C21CCC1 ?
[A] 95.3

[Q] Value lookup for cell proliferation; key = COc1cc(-c2cn(C)c(=O)c3cnccc23)c(OC)cc1CN(C)C
[A] 77.2

[Q] If you can, please state the reported cell proliferation value of Clc1cc2c(NC3CCCC3)nnc(-c3ccncc3)c2cc1Cl .
[A] 93.5

[Q] Find the recorded cell proliferation belonging to O=C([C@@H](Cc1cccc(C(F)(F)F)c1)NS(=O)(=O)c1cc(F)c2c(c1)CCNC2)N1CCCC1 and report it.
[A] 84.5

[Q] Suppose we examine the compound O=C(NCC(=O)N1CCCC1)Nc1ccc2cnccc2c1 ; what cell proliferation value has been reported?
[A] 79.4

----------
System: Hs578-T
Assay: cell proliferation (confluence) relative to DMSO control; higher = less growth inhibition
Protocol Conditions: 5 uM; 6 d
Outcome Measure: cell proliferation (%)
State just the number; it will be interpreted in %.

[Q] Endpoint output: cell proliferation of CC[C@H](C)n1cc(C)c2c(C(=O)NCc3c(C)cc(C)[nH]c3=O)cc(-c3ccc(N4CCNCC4)nc3)cc21 . Value?
[A] 97.8

[Q] // cell proliferation lookup, key: CCCc1cc(C)[nH]c(=O)c1CNC(=O)c1cc(-c2ccc(N3CCN(C(C)C)CC3)nc2)cc2c1cnn2C(C)C
[A] 97

[Q] Bench note: what cell proliferation did O=C(NC[C@H](O)CN1CCc2ccccc2C1)c1ccnc(NC2CCC2)c1 show?
[A] 89.7

[Q] I have this compound here, CC(C)N(CCCNC(=O)Nc1ccc(C(C)(C)C)cc1)C[C@H]1O[C@@H](n2cc(Br)c3c(N)ncnc32)[C@H](O)[C@@H]1O , and I need its recorded cell proliferation.
[A] 96.1

[Q] Given the entry CC(C)Oc1ccc(-c2c[nH]cc2CN(C)CCO)cc1 , report its measured cell proliferation.
[A] 97.2

[Q] Field request: cell proliferation | item: COc1cc2c(cc1OCCCN1CCCC1)N=C(N)C21CCC1
[A] 92.3

[Q] Endpoint output: cell proliferation of O=C(NCC(=O)N1CCCC1)Nc1ccc2cnccc2c1 . Value?
[A] 96.4
